endpoint: melting point

Consider the reported melting point for these compounds:
smiles_repr=COc1cc(C(=O)/C(C#N)=C/c2cc3ccccc3s2)cc(OC)c1OC endpoint="melting point" result="187.5 to 189.3 °C"
smiles_repr=COc1cc(C(=O)/C=C/c2c(C)[nH]c3ccccc23)cc(OC)c1OC endpoint="melting point" result="236.7 to 238.2 °C"
smiles_repr=COc1cc(C(=O)/C=C/c2ccc3occc3c2)cc(OC)c1OC endpoint="melting point" result="110.5 to 115.3 °C"
smiles_repr=COc1cc(C(=O)/C=C/c2cc3ccccc3o2)cc(OC)c1OC endpoint="melting point" result="79.5 to 80.3 °C"

Below: the item to evaluate.
Query (compound): COc1cc(C(=O)/C=C/c2cccc3c2OCO3)cc(OC)c1OC ; field requested: melting point
138.4 to 140.3 °C
